Target: Replication protein A 70 kDa DNA-binding subunit (Homo sapiens, UniProt P27694)
Sequence (P27694 whole entry): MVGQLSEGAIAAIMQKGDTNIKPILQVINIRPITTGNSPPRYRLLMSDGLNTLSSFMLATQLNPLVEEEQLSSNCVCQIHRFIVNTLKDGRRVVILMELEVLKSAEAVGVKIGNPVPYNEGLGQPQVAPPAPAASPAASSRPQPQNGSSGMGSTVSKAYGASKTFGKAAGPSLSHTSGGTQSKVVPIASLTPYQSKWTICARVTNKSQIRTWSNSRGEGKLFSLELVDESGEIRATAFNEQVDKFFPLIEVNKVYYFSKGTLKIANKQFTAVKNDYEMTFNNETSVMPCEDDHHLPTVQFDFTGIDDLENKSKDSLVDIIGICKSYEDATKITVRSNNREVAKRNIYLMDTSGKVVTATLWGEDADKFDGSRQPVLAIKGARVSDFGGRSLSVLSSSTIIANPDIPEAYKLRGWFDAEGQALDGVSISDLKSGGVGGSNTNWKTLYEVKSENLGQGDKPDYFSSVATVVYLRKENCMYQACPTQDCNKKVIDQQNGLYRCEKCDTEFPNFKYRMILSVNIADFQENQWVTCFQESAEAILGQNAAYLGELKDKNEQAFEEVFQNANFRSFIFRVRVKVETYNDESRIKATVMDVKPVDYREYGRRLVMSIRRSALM
Experiment: Binding affinity to human RPA (1 to 422) containing RPA70N and RPA70NAB assessed as inhibition of interaction with FITC-Ahx-DFTADDLEELDTLAS-NH2 after 1 hr by fluorescence polarization anisotropy assay
Provide the recorded Kd for the entries that follow.
Numbers only, in µM.

{"columns": ["Compound smiles", "Value"],
 "data": [
  ["O=C(O)c1sc2cc(-n3c(S)nnc3-c3ccc(Cl)c(Cl)c3)ccc2c1Cl", 17]
]}

For reference, reported Kd for O=C(O)c1sc2cc(-n3c(S)nnc3-c3ccc(Br)c(Cl)c3)ccc2c1Cl stands at 10
